These data points were gathered from the NIST ThermoML archive (doi:10.1016/j.fluid.2009.08.017).

What activity coefficient was measured for each of the following?
assay: activity coefficient (dimensionless); of the first substance listed, at infinite dilution; xn = mol fraction of the nth substance listed; settings: 358.15 K; 101 kPa; Liquid; Chromatography; x1 = 0

Below are worked cases with known answers.
# activity coefficient (compound: c1ccccc1 [benzene] + CCCCCCOCn1cc[n+](C)c1.O=S(=O)([N-]S(=O)(=O)C(F)(F)F)C(F)(F)F ) is 0.827

The compound listed as C=CCCCC [hex-1-ene] + CCCCCCOCn1cc[n+](COCCCCCC)c1.O=S(=O)([N-]S(=O)(=O)C(F)(F)F)C(F)(F)F has a reported activity coefficient of 2.01

Per the records, this compound ( O [water] + CCCCCCOCn1cc[n+](C)c1.O=S(=O)([N-]S(=O)(=O)C(F)(F)F)C(F)(F)F ) has activity coefficient equal to 2.04

// activity coefficient value for CCCCCC [hexane] + CCCCCCOCn1cc[n+](COCCCCCC)c1.O=S(=O)([N-]S(=O)(=O)C(F)(F)F)C(F)(F)F : 2.77

The recorded activity coefficient for C=CCCCCC [1-heptene] + CCCCCCOCn1cc[n+](COCCCCCC)c1.O=S(=O)([N-]S(=O)(=O)C(F)(F)F)C(F)(F)F is 2.41

Report activity coefficient for each item below.
1. C=CCCC [1-pentene] + CCCCCCOCn1cc[n+](C)c1.O=S(=O)([N-]S(=O)(=O)C(F)(F)F)C(F)(F)F
2. CCCCO [butan-1-ol] + CCCCCCOCn1cc[n+](C)c1.O=S(=O)([N-]S(=O)(=O)C(F)(F)F)C(F)(F)F

output:
1. 3.47
2. 1.24
